biological target: Adenosine receptor A1 (Homo sapiens); experiment: Displacement of [3H]R-PIA from human recombinant adenosine A1 receptor expressed in CHO cells after 60 mins by […]
Sequence (P30542 whole entry): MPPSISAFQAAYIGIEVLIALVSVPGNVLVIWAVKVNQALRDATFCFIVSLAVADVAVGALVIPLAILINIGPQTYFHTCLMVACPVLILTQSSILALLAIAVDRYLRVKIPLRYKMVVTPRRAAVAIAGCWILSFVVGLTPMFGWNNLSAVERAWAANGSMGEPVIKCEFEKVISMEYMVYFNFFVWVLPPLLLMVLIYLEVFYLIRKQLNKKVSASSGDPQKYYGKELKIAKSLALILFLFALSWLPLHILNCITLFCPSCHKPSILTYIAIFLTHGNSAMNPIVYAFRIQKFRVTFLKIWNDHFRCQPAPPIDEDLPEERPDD
attribute.measured: Ki (nM)
Write down the numeric answer in nM and omit the unit.

INSERT INTO measurements (smiles_data, attribute_measured, readout_value) VALUES
  ('CCCCC#Cc1nc(N)c2ncn([C@@H]3OC[C@@H](O)[C@H]3O)c2n1', 'Ki', 740),
  ('CCCC/C=C/c1nc2c(N)ncnc2n1[C@@H]1OC[C@@H](O)[C@H]1O', 'Ki', 500);

Q: Supply Ki value. Item: CCCCC#Cc1nc2c(N)ncnc2n1[C@@H]1OC[C@@H](O)[C@H]1O
A: 290
